test system: UO-31 renal; assay: NCI tumour cell line growth inhibition, 48 h
measurementType: TGI

[[record]]
compound = "Cn1c(=O)c(C2c3ccccc3Oc3c2c(=O)n(C)c2ccccc32)c(O)c2ccccc21 (stereo not given)"
measurementtype = "TGI"
result = "> 100 µM"

[[record]]
compound = "C=CCn1c(-c2ccc(N=NNc3ccc(-c4n[nH]c(=S)n4CC=C)cc3)cc2)n[nH]c1=S"
measurementtype = "TGI"
result = "3.97 µM"

[[record]]
compound = "COc1cccc(-n2cnc3c(N/N=C/c4ccncc4)ncnc32)c1"
measurementtype = "TGI"
result = "> 25 µM"

[[record]]
compound = "O=C1NC(N2CCOCC2)=N/C1=C\\c1ccccc1"
measurementtype = "TGI"
result = "> 100 µM"

[[record]]
compound = "O=C1C=Cc2cc3ccccc3c3cccc1c23"
measurementtype = "TGI"
result = "> 100 µM"

